Test system: SK-MEL-5 melanoma
Run description: NCI-60 one-dose screen, 48 h (100 = growth as untreated, 0 = no growth, -100 = all killed)
Experimental parameters: 10 µM unless noted
The panel holds about 83,000 compounds, 20% with a hit somewhere; the sample as a whole holds those more often.
Observable: growth (%)
Numbers only, in %.

{"columns": ["Compound", "Unit name", "growth"],
 "data": [
  ["NS(=O)(=O)c1ccc(CCNC(=O)CSc2ccc(-c3ccc(Br)cc3)nn2)cc1", "%", 28.4],
  ["CN(C)CCn1c2ccccc2c2nc3cc4ccccc4cc3nc21", "%", 14.6]
]}

Provide each entry's growth from the list below.
1. OCNc1ccc(-n2cnc3cc(-c4ccc(O)cc4)ccc32)cc1C(F)(F)F
2. O=c1[nH]c2ccc(Cl)cc2cc1CSc1nccc(-c2ccc(Cl)cc2)n1
3. CCCCSc1nc(Nc2ccc(C(C)=O)cc2)c(C#N)c(-c2ccc(OC)cc2)n1
4. C=C1CC[C@@H]2[C@]3(C)COC(c4cn(-c5ccccc5)nc4-c4ccccc4)O[C@@H]3CC[C@@]2(C)[C@@H]1C/C=C1/C(=O)OC[C@H]1O (stereo partly drawn)
5. CC1[C@H]2[C@H](C[C@H]3[C@@H]4CC=C5c6sc(Nc7ccccc7F)nc6CC[C@]5(C)[C@H]4CC[C@@]32C)O[C@]12CC[C@@H](C)CO2 (stereo partly drawn)
6. O=c1cc(-c2ccccc2)oc2cc(OCCCC[P+](c3ccccc3)(c3ccccc3)c3ccccc3)cc(O)c12

## Result
1. 3.27
2. 48.6
3. 90.1
4. -100
5. -58.1
6. -98.4
